# IC50 listing for each entry below
Tested on: MPNST complex spheroid with HUVEC/MSC, growth, % test/control
assay_overview: Anticancer human tumor MPNST cell line growth inhibition [Asc];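 also: compounds left on spheroids for seven days before reading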
condition_description: curve of first compound; second compound 0.1 µM
measurement_kind: IC50 (nM)

COc1c(OCCCN2CCOCC2)ccc2c3n(c(=NC(=O)c4cnc(N)nc4)nc12)CCN3 + CNC(C)C(=O)NC1CN(S(=O)(=O)c2cccc(S(=O)(=O)N3CCC4CCC(C(=O)NC(c5ccccc5)c5ccccc5)N4C(=O)C(NC(=O)C(C)NC)C3)c2)CCC2CCC(C(=O)NC(c3ccccc3)c3ccccc3)N2C1=O : 15.6
COc1c(OCCCN2CCOCC2)ccc2c3n(c(=NC(=O)c4cnc(N)nc4)nc12)CCN3 + Cc1c(S(C)(=O)=O)c(-c2cc(F)cc(N3CCN(c4ccc(NS(=O)(=O)c5ccc(NC(CCN6CCC(C(=O)OCCCP(=O)(O)O)CC6)CSc6ccccc6)c(S(=O)(=O)C(F)(F)F)c5)cc4)CC3)c2)c(-c2ccc(Cl)cc2)n1C(C)C : 68.1
